system: Septoria tritici (St); experiment: Growth inhibition assay of fungal pathogens, St; type: cell-based; details: Zymoseptoria tritici, 48 h, Septoria tritici; growth inhibition at 48 hours vs 2% DMSO control; read-out: Concentration at 90% Inhibition St
For each record, write down the corresponding IC90.

Please review the following examples before continuing.
Sample "COc1ccc(F)cc1[C@](C)(Cn1c(=O)n(C(C)(C)C(=O)NC(C)C)c(=O)c2c(C)c(-n3nccn3)sc21)OCCC#N" — what was its IC90? > 50 µg/mL

Now the compound "CCNC(=O)[C@@H](C)n1c(=O)c2c(C)c(-n3nccn3)sc2n(C[C@H](OCCC#N)c2cc(F)ccc2OC)c1=O" > 50 µg/mL

Now consider "CC(=O)Oc1ccccc1[C@H](Cn1c(=O)n(C(C)(C)C(=O)NC(C)C)c(=O)c2c(C)c(-n3nccn3)sc21)OCCC#N" and answer again. > 50 µg/mL

I'm hoping you can list IC90 for every compound here, please.
1. Cc1c(-n2nccn2)sc2c1c(=O)n(C(C)(C)C(=O)NC(C)C)c(=O)n2C[C@H](OCCC#N)c1ccccc1O
2. COc1ccccc1[C@H](Cn1c(=O)n([C@@H](C)C(=O)N(C)C(C)C)c(=O)c2c(C)c(-n3nccn3)sc21)OCCC#N
3. COc1ccc(F)cc1[C@H](Cn1c(=O)n([C@@H](C)C(=O)N(C)C(C)C)c(=O)c2c(C)c(-n3nccn3)sc21)OCCC#N

> 50 µg/mL
10 µg/mL
> 50 µg/mL

----------
system: Fusarium virguliforme (Fv); experiment: Growth inhibition assay of fungal pathogens, Fv; type: cell-based; conditions: 48 h, read-out: Concentration at 90% Inhibition Fv, Fusarium virguliforme, growth inhibition at 48 hours vs 2% DMSO control
ENDPOINT NAME: IC90 (µg/mL)
Numbers only, in µg/mL.

Batch: IC90 for all items listed.
1. COc1ccc(F)cc1[C@H](Cn1c(=O)n(C(C)(C)C(=O)N2CCCCC2)c(=O)c2c(C)c(-n3nccn3)sc21)OC(C)C [Compound I-6]
2. COc1ccc(F)cc1[C@H](Cn1c(=O)n(C(C)(C)C(=O)N2CCOCC2)c(=O)c2c(C)c(-n3nccn3)sc21)OC(C)C [Compound I-5]
3. COCCCO[C@@H](Cn1c(=O)n(C(C)(C)C(=O)NC(C)C)c(=O)c2c(C)c(-n3nccn3)sc21)c1cc(F)ccc1OC [Compound I-69]
4. COc1ccc(F)cc1[C@@](O)(CO)Cn1c(=O)n(C(C)(C)C(=O)NC(C)C)c(=O)c2c(C)c(-n3nccn3)sc21 [Compound I-225]

1. 0.08
2. 0.4
3. 0.08
4. 0.4

Please give IC90, item by item, for the list that follows.
1. COc1ccc(F)cc1[C@H](Cn1c(=O)n(C(C)(C)C(=O)NC(C)C)c(=O)c2c(C)c(-n3nccn3)sc21)OC1CCC(=O)CC1 [Compound I-32]
2. CCc1ccc(F)cc1CCn1c(=O)n(C(C)(C)C(=O)NC(C)C)c(=O)c2c(C)c(-n3nccn3)sc21 [Compound I-276]

[0.4, 0.08]

----------
Provide the reported pIC50 of each item.
molecular target: human (hACC2) (Homo sapiens); assay: In vitro ACC inhibition assay (ADP-Glo), hACC2; format: biochemical; details: Table 2a, 5 nM ACC2, 20 μM ATP, 20 μM acetyl-CoA
Sequence (O00763 whole entry): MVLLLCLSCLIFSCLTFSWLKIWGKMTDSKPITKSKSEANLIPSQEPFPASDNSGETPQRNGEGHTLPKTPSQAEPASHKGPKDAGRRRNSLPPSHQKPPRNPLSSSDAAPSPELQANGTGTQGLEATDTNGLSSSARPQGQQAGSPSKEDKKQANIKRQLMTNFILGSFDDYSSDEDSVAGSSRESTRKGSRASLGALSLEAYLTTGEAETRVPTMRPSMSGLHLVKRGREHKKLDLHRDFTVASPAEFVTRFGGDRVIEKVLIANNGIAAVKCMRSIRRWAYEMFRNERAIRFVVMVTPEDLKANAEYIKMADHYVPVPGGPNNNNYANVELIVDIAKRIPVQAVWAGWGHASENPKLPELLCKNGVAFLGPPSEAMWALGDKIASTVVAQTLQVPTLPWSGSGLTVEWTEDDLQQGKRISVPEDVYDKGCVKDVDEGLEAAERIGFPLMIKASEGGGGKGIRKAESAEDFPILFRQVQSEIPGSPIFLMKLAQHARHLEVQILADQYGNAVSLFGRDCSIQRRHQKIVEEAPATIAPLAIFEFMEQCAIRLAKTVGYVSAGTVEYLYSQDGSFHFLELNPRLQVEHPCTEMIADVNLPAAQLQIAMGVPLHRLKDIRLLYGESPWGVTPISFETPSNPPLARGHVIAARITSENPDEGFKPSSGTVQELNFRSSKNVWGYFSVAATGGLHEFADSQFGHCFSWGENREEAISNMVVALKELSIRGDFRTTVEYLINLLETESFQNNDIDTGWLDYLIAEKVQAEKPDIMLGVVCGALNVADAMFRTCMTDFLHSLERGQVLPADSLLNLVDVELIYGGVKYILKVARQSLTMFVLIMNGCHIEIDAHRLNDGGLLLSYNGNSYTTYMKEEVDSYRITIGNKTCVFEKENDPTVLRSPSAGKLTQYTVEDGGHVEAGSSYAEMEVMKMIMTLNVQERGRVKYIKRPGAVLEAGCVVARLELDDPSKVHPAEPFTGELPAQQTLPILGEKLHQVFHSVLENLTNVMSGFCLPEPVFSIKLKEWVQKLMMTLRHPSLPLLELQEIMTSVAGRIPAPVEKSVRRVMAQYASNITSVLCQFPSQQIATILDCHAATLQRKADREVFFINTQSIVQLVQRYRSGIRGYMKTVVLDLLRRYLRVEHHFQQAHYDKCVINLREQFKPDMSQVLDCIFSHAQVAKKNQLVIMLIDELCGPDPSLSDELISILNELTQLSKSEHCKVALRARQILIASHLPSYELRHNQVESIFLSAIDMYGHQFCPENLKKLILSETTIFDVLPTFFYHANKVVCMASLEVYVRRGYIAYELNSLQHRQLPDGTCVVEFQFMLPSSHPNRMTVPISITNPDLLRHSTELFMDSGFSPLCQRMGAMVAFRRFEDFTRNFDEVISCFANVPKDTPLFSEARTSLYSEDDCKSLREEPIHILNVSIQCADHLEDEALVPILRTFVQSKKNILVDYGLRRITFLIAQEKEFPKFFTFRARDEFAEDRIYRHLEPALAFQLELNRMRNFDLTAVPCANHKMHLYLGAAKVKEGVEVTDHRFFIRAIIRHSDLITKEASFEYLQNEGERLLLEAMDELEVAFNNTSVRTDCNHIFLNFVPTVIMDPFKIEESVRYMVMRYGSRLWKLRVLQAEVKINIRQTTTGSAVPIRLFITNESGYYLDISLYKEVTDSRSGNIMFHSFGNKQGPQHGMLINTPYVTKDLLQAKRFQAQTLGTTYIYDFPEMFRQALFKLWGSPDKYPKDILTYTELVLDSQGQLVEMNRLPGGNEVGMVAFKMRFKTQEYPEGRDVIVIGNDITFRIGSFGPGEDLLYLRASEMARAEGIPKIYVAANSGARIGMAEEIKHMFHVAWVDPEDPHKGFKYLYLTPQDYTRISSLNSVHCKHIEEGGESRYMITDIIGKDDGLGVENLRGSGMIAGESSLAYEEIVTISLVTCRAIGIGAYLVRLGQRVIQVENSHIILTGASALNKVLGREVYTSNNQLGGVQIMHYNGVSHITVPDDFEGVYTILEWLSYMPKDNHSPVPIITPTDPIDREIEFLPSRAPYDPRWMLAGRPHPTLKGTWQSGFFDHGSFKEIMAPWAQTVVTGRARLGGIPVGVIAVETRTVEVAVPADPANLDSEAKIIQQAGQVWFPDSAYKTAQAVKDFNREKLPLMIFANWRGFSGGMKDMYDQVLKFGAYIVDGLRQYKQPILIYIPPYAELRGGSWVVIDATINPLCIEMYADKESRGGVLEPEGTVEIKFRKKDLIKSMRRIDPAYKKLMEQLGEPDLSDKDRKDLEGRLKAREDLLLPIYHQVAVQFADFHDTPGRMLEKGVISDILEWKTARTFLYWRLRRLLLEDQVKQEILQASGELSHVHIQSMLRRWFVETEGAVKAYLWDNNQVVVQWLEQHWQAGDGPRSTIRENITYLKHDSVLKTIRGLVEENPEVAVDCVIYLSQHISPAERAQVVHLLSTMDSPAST
pIC50: −log10 of the molar value.

Known pIC50 results, listed for orientation:
Please look up its pIC50: CNC(=O)C(C)(C)n1c(=O)c2c(C)c(-n3nccn3)sc2n(C[C@H](OCCC#N)c2cc(F)ccc2OC)c1=O [Compound I-141] 8.00 to 8.30

Would you mind doing Cc1c(-n2nccn2)sc2c1c(=O)n(C(C)(C)C(=O)NC(C)C)c(=O)n2C[C@H](OC1CCOCC1)c1cc(F)ccc1OCCO [Compound I-111] as well? 8.30 to 9.00

What about this compound? COc1ccc(F)cc1[C@H](Cn1c(=O)n(C(C)(C)C(=O)NCC(C)C)c(=O)c2c(C)c(-n3nccn3)sc21)OC1CCOCC1 [Compound I-29] 8.00 to 8.30

Ok, now COc1ccc(F)cc1[C@H](Cn1c(=O)n([C@H](C)C(=O)N(C)C(C)C)c(=O)c2c(C)c(-n3nccn3)sc21)OCC(C)(C)O [Compound I-169] < 7.40

Also COc1ccc(F)cc1[C@H](Cn1c(=O)n(C(C)(C)C(=O)NC(C)C)c(=O)c2c(C)c(-n3nccn3)sc21)OC[C@H](C)O [Compound I-47] ? 7.40 to 8.00

And COc1ccc(F)cc1[C@H](Cn1c(=O)n([C@H](C)C(=O)N2CCCC2)c(=O)c2c(C)c(-n3nccn3)sc21)OCC(C)(C)O [Compound I-175] ? 8.00 to 8.30

Now try COc1ccc(F)cc1[C@H](Cn1c(=O)n(C(C)(C)C(N)=O)c(=O)c2c(C)c(-n3nccn3)sc21)OCC(C)(C)C#N [Compound I-155] . 8.00 to 8.30

COc1ccc(F)cc1[C@H](Cn1c(=O)n(C(C)(C)C(N)=O)c(=O)c2c(C)c(-n3nccn3)sc21)OC1CCC(=O)CC1 [Compound I-31] ? 8.00 to 8.30

Parameters: items (list). Returns: pIC50 for each item.
1. COc1ccccc1[C@H](Cn1c(=O)n(C(C)(C)C(=O)NC2CCC2)c(=O)c2c(C)c(-n3nccn3)sc21)OC1CCOCC1 [Compound I-20]
2. COCCCO[C@@H](Cn1c(=O)n(C(C)C(=O)NC(C)C)c(=O)c2c(C)c(-n3nccn3)sc21)c1cc(F)ccc1OC (stereo partly shown) [Compound I-130]
3. Cc1c(-n2nccn2)sc2c1c(=O)n(C(C)(C)C(=O)NC(C)C)c(=O)n2C[C@H](OC1CCOCC1)c1cc(F)ccc1OCC#N [Compound I-116]
4. COCCOc1ccc(F)cc1[C@H](Cn1c(=O)n(C(C)(C)C(=O)NC(C)C)c(=O)c2c(C)c(-n3nccn3)sc21)OC(C)C [Compound I-54]
5. COc1ccc(F)cc1[C@H](Cn1c(=O)n(C(C)(C)C(=O)O)c(=O)c2c(C)c(-n3nccn3)sc21)OC[C@@H](C)C#N [Compound I-147]
6. COc1ccc(F)cc1[C@H](Cn1c(=O)n([C@H](C)C(=O)NC(C)C)c(=O)c2c(C)c(-n3nccn3)sc21)OCCO [Compound I-89]
7. COCCO[C@@H](Cn1c(=O)n([C@H](C)C(=O)NC(C)C)c(=O)c2c(C)c(-n3nccn3)sc21)c1cc(F)ccc1OC [Compound I-67]

8.00 to 8.30
7.40 to 8.00
8.00 to 8.30
7.40 to 8.00
8.00 to 8.30
7.40 to 8.00
8.00 to 8.30

Give pIC50 for all compounds that follow.
1. COCCCO[C@@H](Cn1c(=O)n(C(C)(C)C(=O)NC(C)C)c(=O)c2c(C)c(-n3nccn3)sc21)c1cc(F)ccc1OC [Compound I-69]
2. COc1ccc(F)cc1[C@H](Cn1c(=O)n([C@@H](C)C(=O)NC2CCC2)c(=O)c2c(C)c(-n3nccn3)sc21)OCCO [Compound I-77]

1: 8.00 to 8.30; 2: 7.40 to 8.00

Field: pIC50. Fill in for each record below.
1. COc1ccc(F)cc1[C@H](Cn1c(=O)n(C(C)(C)C(=O)N2CCCCC2)c(=O)c2c(C)c(-n3nccn3)sc21)OC1CCOCC1 [Compound I-24]
2. CNC(=O)C(C)(C)n1c(=O)c2c(C)c(-n3nccn3)sc2n(C[C@H](OC(C)C)c2cc(F)ccc2OC)c1=O [Compound I-50]
3. COc1ccc(F)cc1[C@H](Cn1c(=O)n(C(C)(C)C(=O)N2CCCC2)c(=O)c2c(C)c(-n3nccn3)sc21)OC[C@@H](C)O [Compound I-46]

1: 7.40 to 8.00; 2: 8.00 to 8.30; 3: 8.00 to 8.30
